Measured inhibition at 0.1 µM of individual entries
- ASSAYED TARGET: mu receptor (Rattus norvegicus, UniProt P33535)
- Construct: rat whole brain minus cerebellum for mu was homogenized; from tissue; host or cells: brain of male Sprague Dawley rats, whole brain minus cerebellum, homogenate fraction
- Sequence (P33535 whole entry): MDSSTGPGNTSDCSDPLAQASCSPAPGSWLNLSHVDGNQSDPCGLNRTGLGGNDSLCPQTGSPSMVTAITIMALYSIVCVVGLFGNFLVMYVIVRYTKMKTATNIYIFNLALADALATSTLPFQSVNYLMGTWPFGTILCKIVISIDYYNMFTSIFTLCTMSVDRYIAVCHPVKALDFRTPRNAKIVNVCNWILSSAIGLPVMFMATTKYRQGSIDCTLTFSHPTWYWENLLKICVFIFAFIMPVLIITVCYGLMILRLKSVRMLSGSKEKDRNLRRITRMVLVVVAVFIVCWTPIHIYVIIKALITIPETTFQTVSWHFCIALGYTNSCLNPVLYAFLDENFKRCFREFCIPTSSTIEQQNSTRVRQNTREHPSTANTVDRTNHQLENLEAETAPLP
- ASSAY COMMENT: opioid receptor binding assay, [3H] NAL (tritiated naloxone), mu receptor
- Set-up: species or system rat (Male Sprague Dawley), brain minus cerebellum
- CONDITION SUMMARY: 20 min, read-out: % displacement at 100 nM, 100 nM test compound; [3H] naloxone 0.5 nM
Structures can show the parent of a compound that is named as a salt.

[
  {
    "COMPOUND": "C[C@H]1CN(CC(Cc2ccccc2)C(=O)NCCCC(N)=O)CC[C@@]1(C)c1cccc(O)c1 (stereo partly drawn) [Example 63, monohydrochloride]",
    "inhibition at 0.1 µM": "100%"
  },
  {
    "COMPOUND": "C[C@H]1CN(CCC(C(=O)NCCC(N)=O)C2CCCCC2)CC[C@@]1(C)c1cccc(O)c1 (relative stereo) [Example 17, monohydrochloride]",
    "inhibition at 0.1 µM": "100%"
  },
  {
    "COMPOUND": "C[C@H]1CN(CC(CC2CCCCC2)C(=O)NCCC(N)=O)CC[C@@]1(C)c1cccc(O)c1 (stereo partly drawn) [Example 38, hydrochloride]",
    "inhibition at 0.1 µM": "99%"
  }
]

----------
Below is a list of entries, each paired with its recorded AD50 value.
- ASSAYED TARGET: opioid receptor (Mus musculus)
- Construct: Five CF-1 male mice (Charles River, Portage, Mich.); from tissue; host or cells: living CF-1 male mice (in vivo test; endogenous receptor)
- ASSAY COMMENT: mouse writhing analgesis test: block of morphine-induced analgesia
- Type: in vivo, CF-1 male mice
- Set-up: unit not given here
- CONDITION SUMMARY: dose of antagonist that reduced the inhibition of writhing produced by 1.25 mg/kg morphine sulfate to 50%; subcutaneous, 20 min before acetic acid
Counter-ions that a name gives are not always drawn.

[
  {
    "COMPOUND": "C[C@H]1CN(CC(Cc2ccccc2)C(=O)NCCC(=O)O)CC[C@@]1(C)c1cccc(O)c1 (some centres unmarked) [Example 57, monohydrate]",
    "AD50": "> 40"
  },
  {
    "COMPOUND": "CC(C)NC(=O)CNC(=O)C(Cc1ccccc1)CN1CC[C@@](C)(c2cccc(O)c2)[C@@H](C)C1 (some centres unmarked) [Example 48, hydrochloride monohydrate]",
    "AD50": "> 40"
  },
  {
    "COMPOUND": "CNC(=O)CCNC(=O)C(CCN1CC[C@@](C)(c2cccc(O)c2)[C@@H](C)C1)C1CCCCC1 (relative stereo) [Example 18, monohydrochloride]",
    "AD50": "> 40"
  },
  {
    "COMPOUND": "CCOC(=O)CCCNC(=O)C(CCN1CC[C@@](C)(c2cccc(O)c2)[C@@H](C)C1)C1CCCCC1 (relative stereo) [Example 23, monohydrochloride monohydrate]",
    "AD50": "> 20"
  },
  {
    "COMPOUND": "CNC(=O)CNC(=O)C(CCN1CC[C@@](C)(c2cccc(O)c2)[C@@H](C)C1)C1CCCCC1 (relative stereo) [Example 21, hydrochloride]",
    "AD50": "> 20"
  }
]

----------
Collected log10 ED50 values appear next to each entry.
- ASSAYED TARGET: peripheral opioid receptors (Mus musculus)
- Construct: Mice maintained (6 mice/cage) on 0.01M saccharin water with 1 g/1 morphine sulfate; from tissue; host or cells: living morphine-maintained mice (in vivo test; endogenous receptor)
- Sequence (P42866 whole entry): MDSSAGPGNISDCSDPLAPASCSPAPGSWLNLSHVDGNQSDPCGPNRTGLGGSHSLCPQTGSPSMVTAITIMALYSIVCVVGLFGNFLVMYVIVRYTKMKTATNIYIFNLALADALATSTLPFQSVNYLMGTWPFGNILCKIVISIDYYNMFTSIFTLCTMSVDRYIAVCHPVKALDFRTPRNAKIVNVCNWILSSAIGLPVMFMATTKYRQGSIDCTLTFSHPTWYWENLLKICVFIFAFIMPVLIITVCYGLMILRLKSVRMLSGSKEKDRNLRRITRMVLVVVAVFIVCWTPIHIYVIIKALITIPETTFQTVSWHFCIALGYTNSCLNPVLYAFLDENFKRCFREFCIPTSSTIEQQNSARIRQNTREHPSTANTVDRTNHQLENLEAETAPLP
- ASSAY COMMENT: precipitated diarrhea in morphine-maintained mice (peripheral opioid activity) and comparison with the writhing test
- Type: in vivo
- CONDITION SUMMARY: mouse, 0.5 h, morphine-maintained mice; antagonist subcutaneous or oral; 30 min observation
Counter-ions that a name gives are not always drawn.
PARAMETER MEASURED: log10 ED50 (log10 of the value in mg/kg)

[
  {
    "COMPOUND": "CNC(=O)COC(=O)CNC(=O)C(Cc1ccccc1)CN1CC[C@@](C)(c2cccc(O)c2)[C@@H](C)C1 (relative stereo)",
    "EXPERIMENTAL RESULT": -1.15
  },
  {
    "COMPOUND": "C[C@H]1CN(CCC(C(=O)O)C2CCCCC2)CC[C@@]1(C)c1cccc(O)c1 (relative stereo) [Example 9B, hydrochloride]",
    "EXPERIMENTAL RESULT": -1.70
  },
  {
    "COMPOUND": "CNC(=O)CNC(=O)C(CC1CCCCC1)CN1CC[C@@](C)(c2cccc(O)c2)[C@@H](C)C1 (relative stereo) [Example 32, monohydrochloride]",
    "EXPERIMENTAL RESULT": -0.80
  },
  {
    "COMPOUND": "CNC(=O)CCNC(=O)C(CCN1CC[C@@](C)(c2cccc(O)c2)[C@@H](C)C1)C1CCCCC1 (relative stereo) [Example 18, monohydrochloride]",
    "EXPERIMENTAL RESULT": -1.35
  },
  {
    "COMPOUND": "C[C@H]1CN(CC(Cc2ccccc2)C(=O)NCC(=O)NCC(=O)O)CC[C@@]1(C)c1cccc(O)c1 (relative stereo) [Example 68, monohydrate]",
    "EXPERIMENTAL RESULT": -0.64
  },
  {
    "COMPOUND": "C[C@H]1CN(CCC(C(=O)N(C)C)c2ccccc2)CC[C@@]1(C)c1cccc(O)c1 (relative stereo) [Example 10, hydrochloride]",
    "EXPERIMENTAL RESULT": -1.22
  },
  {
    "COMPOUND": "C[C@H]1CN(CC(CC2CCCCC2)C(=O)NCC(=O)O)CC[C@@]1(C)c1cccc(O)c1 (relative stereo) [Example 30, monohydrate]",
    "EXPERIMENTAL RESULT": -1.77
  },
  {
    "COMPOUND": "CCNC(=O)CCCNC(=O)C(CC1CCCCC1)CN1CC[C@@](C)(c2cccc(O)c2)[C@@H](C)C1 (stereo partly shown) [Example 42, monohydrate hydrochloride]",
    "EXPERIMENTAL RESULT": -0.59
  },
  {
    "COMPOUND": "C[C@H]1CN(CC(Cc2ccccc2)C(=O)NCC(N)=O)CC[C@@]1(C)c1cccc(O)c1 (stereo partly shown) [Example 46, monohydrochloride monohydrate]",
    "EXPERIMENTAL RESULT": -1.15
  },
  {
    "COMPOUND": "CNC(=O)CCNC(=O)C(Cc1ccccc1)CN1CC[C@@](C)(c2cccc(O)c2)[C@@H](C)C1 (stereo partly shown) [Example 59, monohydrochloride]",
    "EXPERIMENTAL RESULT": -0.27
  },
  {
    "COMPOUND": "C[C@H]1CN(CC(Cc2ccccc2)C(=O)NCC(=O)NCC2CCCCC2)CC[C@@]1(C)c1cccc(O)c1 (relative stereo)",
    "EXPERIMENTAL RESULT": -0.30
  },
  {
    "COMPOUND": "C[C@H]1CN(CC(Cc2ccccc2)C(=O)NCC(=O)O)CC[C@@]1(C)c1cccc(O)c1 (stereo partly shown) [Example 44, monohydrate]",
    "EXPERIMENTAL RESULT": -0.82
  },
  {
    "COMPOUND": "CCOC(=O)CNC(=O)C(Cc1ccccc1)CN1CC[C@@](C)(c2cccc(OC)c2)[C@@H](C)C1 (single isomer, unassigned)",
    "EXPERIMENTAL RESULT": 0.52
  },
  {
    "COMPOUND": "CCc1noc(CNC(=O)C(Cc2ccccc2)CN2CC[C@@](C)(c3cccc(O)c3)[C@@H](C)C2)n1 (relative stereo)",
    "EXPERIMENTAL RESULT": -0.72
  },
  {
    "COMPOUND": "C[C@H]1CN(CCC(C(=O)NCCC(=O)O)C2CCCCC2)CC[C@@]1(C)c1cccc(O)c1 (relative stereo) [Example 26, monohydrate]",
    "EXPERIMENTAL RESULT": -1.52
  },
  {
    "COMPOUND": "CCNC(=O)CCNC(=O)C(Cc1ccccc1)CN1CC[C@@](C)(c2cccc(O)c2)[C@@H](C)C1 (stereo partly shown) [Example 60, monohydrochloride]",
    "EXPERIMENTAL RESULT": -1.00
  },
  {
    "COMPOUND": "CCNC(=O)CNC(=O)C(CCN1CC[C@@](C)(c2cccc(O)c2)[C@@H](C)C1)C1CCCCC1 (relative stereo) [Example 22, hydrochloride]",
    "EXPERIMENTAL RESULT": -1.10
  },
  {
    "COMPOUND": "C[C@H]1CN(CC(Cc2ccccc2)C(=O)NCCC(=O)O)CC[C@@]1(C)c1cccc(O)c1 (stereo partly shown) [Example 57, monohydrate]",
    "EXPERIMENTAL RESULT": -1.00
  },
  {
    "COMPOUND": "C[C@H]1CN(CC(CC2CCCCC2)C(=O)NCCCC(N)=O)CC[C@@]1(C)c1cccc(O)c1 (stereo partly shown) [Example 40, hydrochloride]",
    "EXPERIMENTAL RESULT": 0.11
  }
]

// data source = patent US5250542A
